B1: Azoarcus group I ribozyme (parent)
chain: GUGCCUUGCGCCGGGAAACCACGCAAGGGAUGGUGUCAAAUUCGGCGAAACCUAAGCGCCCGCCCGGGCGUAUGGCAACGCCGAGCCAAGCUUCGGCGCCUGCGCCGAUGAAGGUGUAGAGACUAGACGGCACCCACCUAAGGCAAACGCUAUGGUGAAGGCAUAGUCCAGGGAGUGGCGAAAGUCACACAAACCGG

- Variants of: B1
- assay.overview: reverse-splicing fitness (ratio to wild type); higher = more active; in vitro selection; Mg2+ level not given
quantity: reverse-splicing fitness
// return a plain number; no unit text

> print(dat)
                  residue.change                  quantity  assay.result
1         C82G A111C C150A U176C  reverse-splicing fitness        0.0293
2  A111U A145C C150U C169A U176G  reverse-splicing fitness       0.00703
3         C82U A120U C150G U176G  reverse-splicing fitness        0.0022

If you can, please state the reported reverse-splicing fitness value of C82A A111U A120U A145G C150U C169A . 0.00728

Quick one: reverse-splicing fitness of A120G A145C U176C ? 0.227

What reverse-splicing fitness value was documented for this variant, C82A A120U A145G C150A C169G U176A ? 0.00661

Please look up its reverse-splicing fitness: C82G A111U A120U A145U C150U C169A 0.00323

Any idea what its reverse-splicing fitness is? The variant is A111C A120G A145U C150G C169A U176A 0.0089

Would you mind telling me what reverse-splicing fitness value was observed for A111G A145G C150G C169G U176G ? 0.00506

Would you mind telling me what reverse-splicing fitness value was observed for C82G A111G A145G C150A C169U U176A ? 0.0155

Fill blank: measured reverse-splicing fitness of the variant C82A A111U A120C A145G C150G C169A U176A is ____. 0.0164

Bench note: what reverse-splicing fitness did C82A A111G C169A U176A show? 0.0155

What value of reverse-splicing fitness has been recorded for this entry: C82A A111G A120C A145U C169A U176C 0.0152

I am curious: what reverse-splicing fitness value has been reported for C82U A111C A120U A145U C150A ? 0.00535

Please give the measured reverse-splicing fitness for this variant: A120C A145G C150A U176C 0.271

Data request, read-out reverse-splicing fitness, for C82U A111G A120G A145C C150A C169A 0.00777

Could you share which reverse-splicing fitness value was measured for A111U A145U C150U C169A U176A ? 0.0144

Return reported reverse-splicing fitness; argument: C82U A111G C150U C169U U176G 0.00589

So what's the measured reverse-splicing fitness for this one? C82U A120G A145C C150U C169A 0.00913

GET /values?readout=reverse-splicing fitness&item= A120C A145C C169U U176G 0.0155

Recorded reverse-splicing fitness of C82U A120U A145G C150U , please. 0.137

Query (variant): C82G A120U A145C C150A C169U ; field requested: reverse-splicing fitness 0.00213

Query: reverse-splicing fitness; subject: C82A A111G A120U A145C C169U 0.00349

So what does the record say about reverse-splicing fitness for A111C A120C A145G C150A C169A U176A ? 0.0145

Query: reverse-splicing fitness; subject: C82G A111U A120C C169G U176G 0.00577

Given C82G A120C A145G C169U , state its recorded reverse-splicing fitness. 0.0256

I would be grateful if you could share the reported reverse-splicing fitness for C82U A111C A120G A145U C169A U176G . 0.00418
